System: IGROV1 ovarian
Experiment: NCI-60 one-dose screen, 48 h (100 = growth as untreated, 0 = no growth, -100 = all killed)
Conditions: 10 µM unless noted
This is part of a sample that, as a whole, favours compounds with a hit. Of some 83,000 tested, about 20% had one in any assay.
Readout name: growth (%)
Reply with just the number (in %).

A selection of reference data follows.
{"columns": ["Molecule", "growth, %"],
 "data": [
  ["CC(=O)N1N=C(C2C(=O)N(C)C(=O)N(C)C2=O)CC1c1ccccc1C(=O)O (configuration not stated)", 112],
  ["O=c1c2cc(Cl)ccc2oc2ccc(OCCCCCN3CCCCC3)cc12", 72],
  ["Cc1c(C(=O)CCl)c(=O)n(-c2ccccc2)n1C", 48.6]
]}

Which value of growth has been reported for "O=C(O/C(=C/c1ccccc1)C(F)(F)F)c1ccccc1" in the records?
120

Repeat for the following molecule: "Cc1ccc(NC(=O)c2cc(NCc3cc(O)ccc3O)ccc2O)cc1"
97.9

Next molecule up: "O=C(/C=C/c1ccccc1Br)c1cccc(OCCCCOc2cccc(C(=O)/C=C/c3ccccc3Br)c2)c1"
92.4

Next record, please: "O=C(CCl)N1c2ccccc2Oc2ccc3ccccc3c21"
-70.2

Also, "COc1cc(/C=N/NC(=O)Cn2c(-c3ccc(C)o3)nc3ccccc32)ccc1OCc1ccccc1" please.
94.3

Would you mind doing "O=C(Nc1cccc(Cl)c1)Nc1ccccc1Cl" as well?
85.9

====

Test system: UACC-62 melanoma
Test: NCI-60 one-dose screen, 48 h (100 = growth as untreated, 0 = no growth, -100 = all killed)
Details: 10 µM unless noted
The panel holds about 83,000 compounds, 20% with a hit somewhere; the sample as a whole holds those more often. The source made the active and inactive calls. Rule for the calls: active = growth percent below 10; inactive = the rest.
Readout name: growth

Known growth results, listed for orientation:
{"columns": ["Molecule", "Readout name", "Result"],
 "data": [
  ["CCCNCCC(C)=O", "growth", "98% (inactive)"],
  ["O=C(Nc1cccc(Cl)c1)Nc1ccccc1Cl", "growth", "63.7% (inactive)"],
  ["CCSc1cnnc2ccccc12", "growth", "102% (inactive)"],
  ["COc1ccccc1CNCCCN1C(=O)c2ccc3c4c(ccc(c24)C1=O)C(=O)N(CCCNCCCN)C3=O", "growth", "-50% (active)"],
  ["CCCCCCCCCCCC1=NC(C)(C)CN1CCO", "growth", "-14.3% (active)"]
]}

What growth appears in the records for this molecule with UACC-62 melanoma? "O=[N+]([O-])c1ccc(Sc2nc(Cl)nc(NC3CCCC3)n2)cc1"
-97.4% [100 µM] (active)

Cool, now COc1ccc(C2c3cccn3-c3ccccc3N2C(C)=O)cc1 (configuration not stated)
86.3% (inactive)

====

Tested on: SN12C renal
Experiment: NCI-60 one-dose screen, 48 h (100 = growth as untreated, 0 = no growth, -100 = all killed)
Settings: 10 µM unless noted
The panel holds about 83,000 compounds, 20% with a hit somewhere; the sample as a whole holds those more often. Activity calls are given as the source filed them. How the source made its calls: active means growth percent below 10; inactive means the rest.
Listed below: growth values for each entry.

The cases that follow already have their growth on record.
{"columns": ["Compound", "growth"],
 "data": [
  ["COc1ccc(-c2nc3c(c(-c4ccc(Cl)cc4)nn3-c3ccccc3)c(-c3ccc(O)cc3)c2C#N)cc1", "-26.7% (active)"],
  ["CC(C)=CC[C@@H]1CC2(CC=C(C)C)C(=O)C(OC3(C(=O)c4ccccc4)C(=O)C4(CC=C(C)C)C[C@@H](CC=C(C)C)C(C)(C)C(CC=C(C)C)(C4=O)C3=O)(C(=O)c3ccccc3)C(=O)C(CC=C(C)C)(C2=O)C1(C)C (stereo partly drawn)", "-17.9% (active)"],
  ["COc1cc(Cl)cc(-c2nn(C(=O)NCCN3CCOCC3)cc2-c2ccncc2)c1", "75.3% (inactive)"]
]}

Can you look up growth on SN12C renal for "O=C1Nc2ccccc2/C1=C\c1nc(C2CCN(S(=O)(=O)c3ccc(F)cc3)CC2)n2ccccc12" ?
46% (inactive)

Record: "COc1ccc2[nH]cc(C3(c4c[nH]c5ccc(OC)cc45)C(=O)Nc4ccc(F)cc43)c2c1"
106% (inactive)

Would you kindly repeat that for "Fc1ccc(-c2cnc3nonc3n2)c(F)c1" ?
107% (inactive)
